Values from patent US20100150834A1

Target: murine EphB4 ectodomain (Mus musculus)
Construct: Wells coated with the murine EphB4 ectodomain
Sequence (P54761 16-539 limits assumed): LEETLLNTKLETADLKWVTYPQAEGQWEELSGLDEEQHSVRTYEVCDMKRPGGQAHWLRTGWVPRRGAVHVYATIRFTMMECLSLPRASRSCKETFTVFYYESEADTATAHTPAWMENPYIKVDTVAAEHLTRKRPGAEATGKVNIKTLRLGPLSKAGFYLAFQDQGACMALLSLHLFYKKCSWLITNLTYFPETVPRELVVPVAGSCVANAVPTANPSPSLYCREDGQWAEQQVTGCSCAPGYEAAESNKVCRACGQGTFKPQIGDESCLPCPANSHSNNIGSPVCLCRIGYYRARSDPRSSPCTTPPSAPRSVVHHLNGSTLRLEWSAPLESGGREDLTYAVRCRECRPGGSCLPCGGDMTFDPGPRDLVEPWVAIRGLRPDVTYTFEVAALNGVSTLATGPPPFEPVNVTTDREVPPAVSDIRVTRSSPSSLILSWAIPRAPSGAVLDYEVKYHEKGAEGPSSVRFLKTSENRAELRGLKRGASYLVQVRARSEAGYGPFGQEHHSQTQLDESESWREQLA
Assay: Inhibition of murine ephrin-B2 AP binding to immobilized murine EphB4 ectodomain (Example 4)
pIC50: −log10 of the molar value. No end group written: not given here.
RESULT TYPE: pIC50

Provide only the value of recorded pIC50 for LFSPNGPIARAW [L-RAW]
< 5.00

====

Target: EphB1 (Homo sapiens, UniProt P54762)
Sequence (P54762 18-540 limits assumed): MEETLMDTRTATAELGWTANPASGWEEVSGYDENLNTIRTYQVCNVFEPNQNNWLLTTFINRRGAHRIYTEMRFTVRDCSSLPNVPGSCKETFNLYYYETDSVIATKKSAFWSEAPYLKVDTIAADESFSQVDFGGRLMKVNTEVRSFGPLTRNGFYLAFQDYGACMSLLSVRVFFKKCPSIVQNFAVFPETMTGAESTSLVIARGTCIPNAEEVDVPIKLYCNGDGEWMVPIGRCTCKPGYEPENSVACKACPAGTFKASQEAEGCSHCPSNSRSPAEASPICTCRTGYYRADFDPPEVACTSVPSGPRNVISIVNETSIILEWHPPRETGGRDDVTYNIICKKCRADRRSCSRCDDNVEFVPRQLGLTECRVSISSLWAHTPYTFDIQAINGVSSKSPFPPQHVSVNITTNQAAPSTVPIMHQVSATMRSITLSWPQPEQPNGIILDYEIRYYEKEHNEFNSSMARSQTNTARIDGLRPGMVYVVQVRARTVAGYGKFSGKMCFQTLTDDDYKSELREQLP
Assay: Inhibition of ephrin-B2 AP binding by peptides panned on EphB1 (Table 1)
Conditions: panning receptor EphB1
pIC50: −log10 of the molar value. No end group written: not given here.
RESULT TYPE: pIC50

Note down pIC50 recorded for EWLSPNLAPSVR [compound 1]
~5.00

====

Molecular target: EphB2 (Homo sapiens, UniProt P29323)
Sequence (P29323 19-1055): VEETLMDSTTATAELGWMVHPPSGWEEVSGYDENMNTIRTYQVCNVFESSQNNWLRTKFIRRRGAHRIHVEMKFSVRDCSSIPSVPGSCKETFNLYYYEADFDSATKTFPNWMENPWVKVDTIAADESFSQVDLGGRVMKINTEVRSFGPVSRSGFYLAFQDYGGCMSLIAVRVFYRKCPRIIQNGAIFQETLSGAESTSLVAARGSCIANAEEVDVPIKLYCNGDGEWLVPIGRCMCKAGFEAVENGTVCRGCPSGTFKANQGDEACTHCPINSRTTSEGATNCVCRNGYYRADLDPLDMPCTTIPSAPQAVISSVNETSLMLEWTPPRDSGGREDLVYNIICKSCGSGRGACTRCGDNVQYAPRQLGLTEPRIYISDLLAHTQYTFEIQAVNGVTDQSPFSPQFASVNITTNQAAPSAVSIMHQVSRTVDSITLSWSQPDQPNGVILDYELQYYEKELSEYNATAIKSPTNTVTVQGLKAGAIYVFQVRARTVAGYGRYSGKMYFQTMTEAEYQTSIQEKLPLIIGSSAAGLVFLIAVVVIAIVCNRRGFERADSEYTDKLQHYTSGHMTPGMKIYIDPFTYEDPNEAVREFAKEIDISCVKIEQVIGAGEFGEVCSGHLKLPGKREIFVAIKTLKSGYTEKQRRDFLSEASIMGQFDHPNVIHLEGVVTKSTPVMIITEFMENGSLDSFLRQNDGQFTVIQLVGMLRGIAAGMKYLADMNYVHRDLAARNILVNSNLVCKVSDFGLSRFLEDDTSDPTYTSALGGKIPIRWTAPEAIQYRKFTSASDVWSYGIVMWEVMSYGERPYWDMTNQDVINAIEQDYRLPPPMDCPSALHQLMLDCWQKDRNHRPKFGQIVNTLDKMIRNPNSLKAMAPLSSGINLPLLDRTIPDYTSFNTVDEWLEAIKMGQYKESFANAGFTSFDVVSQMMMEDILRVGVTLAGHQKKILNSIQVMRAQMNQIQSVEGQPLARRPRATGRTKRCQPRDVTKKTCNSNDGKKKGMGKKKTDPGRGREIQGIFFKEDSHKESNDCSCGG
Assay: EphB receptor specificity (% binding), Table 1
Conditions: binding to EphB2
No end group written: not given here.
RESULT TYPE: EphB Receptor Specificity (% Binding) B2 (%)
Respond numerically; units are % and should not be typed.

// worked examples, EphB Receptor Specificity (% Binding) B2 included
> print(dat)
                                  substance                               result.type  val
1  26 (LPHGPVAAWDA; EphB4-binding peptide) [compound 26]  EphB Receptor Specificity (% Binding) B2   15
2                 AHTFPYPHPKPH [compound 3]  EphB Receptor Specificity (% Binding) B2    4
3                 EWLSPNLAPSVR [compound 1]  EphB Receptor Specificity (% Binding) B2    2

Now look at this one.
Answer with the recorded EphB Receptor Specificity (% Binding) B2 for the substance listed here: DHNHNLYNPWRL [compound 21]
8

====

System: EphB1
Test: EphB receptor specificity (% binding), Table 1
Settings: binding to EphB1
No end group written: not given here.
Entries and their EphB Receptor Specificity (% Binding) B1 values follow.
Write down the value, and be sure its unit follows.

> print(dat)
                    substance  val
1  DHNHNLYNPWRL [compound 21]   9%

State its EphB Receptor Specificity (% Binding) B1 for this substance: FSPQGPAARNFA [compound 25]
13%

Report EphB Receptor Specificity (% Binding) B1, nothing else, for this substance: AHTFPYPHPKPH [compound 3]
100%

Output EphB Receptor Specificity (% Binding) B1 of 26 (LPHGPVAAWDA; EphB4-binding peptide) [compound 26]
2%

Item TYFDFQAWSIRA [compound 22] : provide EphB Receptor Specificity (% Binding) B1
10%

Read off the recorded EphB Receptor Specificity (% Binding) B1 for EWYMKFPPEHYF [compound 19]
22%
